# System: Trichoderma virens ATCC 9645
# experimentSummary: growth yield (OD600) with compound + IPBC relative to untreated control; higher = less growth inhibition
# reportedConditions: compound concentration: 100 uM; IPBC concentration: 200 ng/ml; 72 h
Among all 1,300 compounds or so, about 130 (10%) showed an effect of 50% or more. The full list was thinned out, with strong results kept by preference.
observedProperty: growth yield

Solved cases below.
# compound, growth yield
measured = [
    ("O=C(NCNC(=O)NC1C(=O)NC(=O)N1CO)NC1C(=O)NC(=O)N1CO (stereo not given) [Imidurea] + CCCCNC(=O)OCC#CI [3-iodo-2-propynyl butylcarbamate (IPBC)]", "92.5%"),
    ("CN[C@@H]1[C@@H](O[C@H]2O[C@H](CO)[C@@H](N)[C@H](O)[C@H]2O)OC2C[C@@H](N)[C@@H](O[C@H]3[C@H](O)[C@@H](O)[C@H](N)C[C@@H]3N)OC2[C@@H]1O (stereo not given in full) [Apramycin] + CCCCNC(=O)OCC#CI [3-iodo-2-propynyl butylcarbamate (IPBC)]", "97.1%"),
    ("O=c1[nH]c(=O)n([C@H]2C[C@H](O)[C@@H](CO)O2)cc1F [Floxuridine] + CCCCNC(=O)OCC#CI [3-iodo-2-propynyl butylcarbamate (IPBC)]", "19.1%"),
    ("CC1=C(/C=C/C(C)=C/C=C/C(C)=C\\C(=O)O)C(C)(C)CCC1 [Isotretinoin] + CCCCNC(=O)OCC#CI [3-iodo-2-propynyl butylcarbamate (IPBC)]", "105%"),
]

For the next question, use this compound.
Suppose we examine the compound O=c1[nH]c(=O)n([C@H]2C[C@H](O)[C@@H](CO)O2)cc1C(F)(F)F [Trifluridine] + CCCCNC(=O)OCC#CI [3-iodo-2-propynyl butylcarbamate (IPBC)] ; what growth yield value has been reported? 92.7%

Provenance of the data: the supplement of paper PMC8007513
